Reference source for all entries: paper PMC4356366

Molecular target: T1, human Pals1 PDZ domain F318C mutant (human, UniProt Q8N3R9 251-335, F318C)
T1 construct: Pals1 (MPP5), human, PDZ domain, residues 251-335, F318C; The methods name only the wild type and F318A; also called Pals1^PDZ F318C
T1 sequence (looked up): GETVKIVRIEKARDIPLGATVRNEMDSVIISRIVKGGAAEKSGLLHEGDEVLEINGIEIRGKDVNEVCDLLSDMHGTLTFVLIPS
Experiment: fluorescence polarisation; fixed fluorescein-labelled peptide (50 nM), Pals1 PDZ protein titrated 0 to 300 µM; 20 mM HEPES pH 7.5, 100 mM NaCl, 1 mM DTT; 20 µl in 384-well plate, read after 5 min
Conditions: both partners purified
Ends that are not written are not given here.
observation type: pKd
pKd is defined as minus the log10 of a concentration measured in mol/L.

Memo: RVEMWNLMPPPAMERLI (also: fluorescein label, position not given here, also called fluorescein-labelled Crb^17; Crumbs peptide (homologue 1)) [fluorescein-labelled human Crb1 peptide, residues 1390-1406 (Crb^17)] , reported pKd: 5.30
